Test protocol: PHH natural infection assay, cytotoxicity (Cell Counting Kit-8)
Type: cell-based
Condition set: human, HBV-infected primary human hepatocytes, CCK8, end of treatment
Collected CC50 at 144 h values appear next to each entry.

A selection of reference data follows.
Compound | Test result
O=C(NC1CC2(C1)CC(c1nc3cc(Cl)ccc3o1)C2)c1occc1Br (stereo not shown) [Example 5] | 73.2 µM
N=S(=O)(c1ccc(C(=O)NC2CC3(C2)CC(c2nc4cc(Cl)ccc4o2)C3)o1)N1CCOCC1 (stereo not shown) [Example 67] | > 10 µM
Cn1cc(C(=O)NC2CC3(C2)CC(c2nc4cc(Cl)ccc4o2)C3)cn1 (stereo not shown) [Example 13] | > 100 µM

Sure, the documented CC50 at 144 h for CCOC(=O)NS(=O)(=O)c1ccc(C(=O)N[C@H]2CC3(C2)C[C@H](c2nc4cc(Cl)ccc4o2)C3)o1 (single isomer, unassigned) [Example 74] is > 10 µM

Sure, the documented CC50 at 144 h for O=C(NC1CC2(C1)CC(c1nc3cc(Cl)ccc3o1)C2)c1ccc(C(=O)C2CC2)o1 (stereo not shown) [Example 10] is 96.1 µM

Sure, the documented CC50 at 144 h for COC(=O)CCC(=O)NS(=O)(=O)c1ccc(C(=O)N[C@H]2CC3(C2)C[C@H](c2nc4cc(Cl)ccc4o2)C3)o1 (single isomer, unassigned) [Example 75] is > 10 µM

Sure, the documented CC50 at 144 h for N=S(=O)(c1ccc(C(=O)NC2CC3(C2)CC(c2nc4cnc(Cl)cc4o2)C3)o1)C1CC1 (stereo not shown) [Example 65] is > 100 µM
